# System: S. cerevisiae expressing PfHSP40, growth rescue, plate reader
# TEST: Yeast growth rescue from Plasmodium falciparum HSP40 toxicity, dose response confirmatory, plate reader (AID 540271);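 also: yeast growth read after three days of incubation at 30 °C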
Recorded AC50 values for a group of compounds are listed next.

Problem: Could you share which AC50 value was measured for `Cc1nc2ccc(NC(=O)Cc3ccc4c(c3)OCCO4)cc2s1` ?
Result: 4.83 µM

Problem: # query: AC50 of entry `Clc1nc(-c2ccccn2)nc2scc(-c3ccccc3)c12`
Result: 5.78 µM

* * *

# Tested on: S. cerevisiae expressing PfHSP40, growth rescue, plate reader
# TEST: Yeast growth rescue from Plasmodium falciparum HSP40 toxicity, dose response confirmatory, plate reader (AID 540271);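 also: yeast growth read after three days of incubation at 30 °C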
The source made the active and inactive calls. How the calls were made is not given here.
One label from this list, please: label 1 (active), label 0 (inactive)

The examples below pair each entry with its known result.
- COc1ccccc1N(C)S(=O)(=O)c1ccc(Cl)c(C(=O)NNC(=O)c2ccccc2O)c1: label 1
- O=C(CSc1ccc(-c2ccccn2)nn1)NC1CCCC1: label 1
- Nc1cc2nc3ccccc3oc-2cc1=O: label 1
- O=c1c(/C=N/O)coc2ccc(Cl)cc12: label 0

Now let's try a different one.
Problem: What is the recorded call for this molecule in the test? `Oc1ccc(Br)cc1/C=N/Nc1ccccn1`
Result: label 1

* * *

# System: S. cerevisiae expressing PfHSP40, growth rescue, plate reader
# TEST: Yeast growth rescue from Plasmodium falciparum HSP40 toxicity, dose response confirmatory, plate reader (AID 540271);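 also: yeast growth read after three days of incubation at 30 °C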
AC50 by entry:

Here are 3 compounds together with their reported answers.
* COc1ccc(-c2cc(C(=O)N3CCN(c4ccccc4F)CC3)c3ccccc3n2)c(OC)c1 | 5.68 µM
* S=C(Nc1ccc(Oc2ccccc2)cc1)NC1CCCCCC1 | 6.93 µM
* O=c1c(-c2cccc3ccccc23)[n+]([O-])c2ccccc2n1O | 10.4 µM

Problem: Form field: AC50 recorded for `O=NN(CCc1ccncc1)c1ccc(OCc2ccccc2)cc1` with S. cerevisiae expressing PfHSP40, growth rescue, plate reader (enter value)
Result: 5.81 µM

Problem: Tell me reported AC50 for `COc1ccc2[nH]c(=O)c(CN(Cc3cccnc3)C(=O)Nc3ccccc3)cc2c1` , tested with S. cerevisiae expressing PfHSP40, growth rescue, plate reader.
Result: 6.16 µM

Problem: S. cerevisiae expressing PfHSP40, growth rescue, plate reader / AC50 / `CSC(=S)N/N=C/c1ccccc1` : value?
Result: 5.83 µM

* * *

# Tested on: S. cerevisiae expressing PfHSP40, growth rescue, plate reader
# TEST: Yeast growth rescue from Plasmodium falciparum HSP40 toxicity, dose response confirmatory, plate reader (AID 540271);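 also: yeast growth read after three days of incubation at 30 °C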
MEASUREMENT LABEL: AC50

Solved cases below.
* Nc1nc2sc3c(c2c(=O)s1)CCCC3 | 3.58 µM
* Cc1[nH]n(-c2ccccc2)c(=O)c1/C=N/Nc1nncc(-c2ccccc2)n1 | 7.15 µM
* c1ccc(Cn2cc(-c3cccnc3)cn2)cc1 | 1.62 µM

Problem: Sample `COC(OC)c1ccc(C#N)c(SCc2ccccc2)n1` — what was its AC50?
Result: 7.52 µM
